test: small-molecule binders of probe aInhba, primary screen, biochemical, small-molecule microarray, 635/667 nm fluorescence (AID 1148); details: higher = more signal;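 further: score merges 667nm spot fluorescence with signal-to-noise for antibody binding to printed compounds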
MEASURE_NAME: composite z-score

LINE_NOTATION | MEASURE_NAME | REPORTED_MEASUREMENT
C=CCNC(=O)[C@@H]1[C@H]2C(=O)O[C@H](c3ccccc3)[C@H](c3ccccc3)N2[C@H](c2ccccc2OCCO)[C@@]12C(=O)N(C(=O)OCCOC)c1ccc(C#CC3=CCCCC3)cc12 | composite z-score | -0.146
CCOC(=O)C[C@H]1[C@H](OC(=O)Cc2ccc3c(c2)OCO3)[C@@H](NC(=O)Cc2ccc(OC)cc2)c2cc(OCCCO)ccc2N1C(=O)c1ccccc1 | composite z-score | -0.103
C[n+]1ccc(CCCO)cc1 | composite z-score | 0.196
CCOC(=O)C[C@H]1[C@H](OC(=O)Cc2ccc3c(c2)OCO3)[C@@H](NC(=O)C2CCCCC2)c2cc(OCCCO)ccc2N1C(=O)c1ccc2ccccc2n1 | composite z-score | -0.0361
CO[C@H]1O[C@H](CO)[C@@H](OC(=O)Nc2ccc(C(F)(F)F)cc2)[C@H](OC(=O)Nc2ccc3c(c2)OCO3)[C@H]1OC(=O)Nc1ccc2c(c1)OCO2 | composite z-score | 0.234
CC(C)N1C(=O)[C@@]2(c3ccc([N+](=O)[O-])cc3)CC(=O)N(C3CCCCC3)[C@@H]2c2ccc(CO)cc21 | composite z-score | -0.045
COCCCNC(=O)[C@]1(Cc2ccccc2N=[N+]=[N-])N=C(c2ccc(OCCCO)cc2)O[C@@H]1c1ccccc1N=[N+]=[N-] | composite z-score | -0.0011

# credit: PubChem BioAssay
